- System: Enterococcus spp.
- test: minimum inhibitory concentration (MIC)
- measurement conditions: isolate (source animal id): 301
reported endpoint: minimum inhibitory concentration

CC[C@H]1OC(=O)C[C@@H](O)[C@H](C)[C@@H](O[C@@H]2O[C@H](C)[C@@H](O)[C@H](N(C)C)[C@H]2O)[C@@H](CCN2C[C@H](C)C[C@H](C)C2)C[C@@H](C)C(=O)/C=C/C(C)=C/[C@@H]1CO[C@@H]1O[C@H](C)[C@@H](O)[C@@H](OC)[C@H]1OC [Tilmicosin] ... 8 µg/mL
CN(C)[C@@H]1C(O)=C(C(N)=O)C(=O)[C@@]2(O)C(O)=C3C(=O)c4c(O)cccc4[C@@](C)(O)[C@H]3C[C@@H]12 [Tetracycline] ... ≤ 0.5 µg/mL
CCCNC[C@]1(O)[C@H](C)O[C@@H](O[C@H]2[C@H](C)[C@@H](O[C@@H]3O[C@H](C)C[C@H](N(C)C)[C@H]3O)[C@](C)(O)C[C@@H](C)CN[C@H](C)[C@@H](O)[C@](C)(O)[C@@H](CC)OC(=O)[C@@H]2C)C[C@@]1(C)OC [Tulathromycin] ... ≤ 8 µg/mL
COc1cc(Cc2cnc(N)nc2N)cc(OC)c1OC.Cc1cc(NS(=O)(=O)c2ccc(N)cc2)no1 [trimethoprim-sulfamethoxazole] ... ≤ 2 µg/mL
